SYSTEM_NAME: T1, mouse FAP protein (mouse, UniProt P97321 1-761)
T1 construct: also called murine FAP
TEST_PROTOCOL: method not stated
ASSAY_READOUT: Kd (nM)

BINDER | ASSAY_READOUT | LT_GT_EQ | READOUT_NUMBER
FAP-A11 parental (scFv, the format in the KD assay is told only as 'SCFV'; also called FAP-A11SCFV(WT); FAP #1) scFv: EIVLTQSPGTLSLSPGERATLSCRASQPINNYLAWYQQKPGQAPRLLIFSASNRATGIPDRFSGSGSGTEFTLTISSLEPEDFAVYYCQQYYDWPPYTFGGGTKVEIKGGGGSGGGGSGGGGSGGGGSDVQLVESGGGLVQPGGSLRLSCAASGFSMSNFAMTWVRQAPGEGLEWVSGIRGSGTTYYADSVKGRFTVSRDNSKNTLYLQMNSLRAEDTAIYYCAKTWGTEYFDYWGLGTLVTVSS | Kd | < | 0.02
FAP-C3 VK1-VH14 (FAP #5) (scFv, format in the KD assay not described; also called FAP-C3VK1VH14 (ND, SY, ES, ES, ER); FAP-C3-VK1-VH4) scFv: EIVLTQSPGTLSLSPGERATLSCRASQSVGHYLAWYQQKPGQAPRLLIYDASNRAIDIPDRFSGSGSGTEFTLTISRLEPEDFAVYYCQQYYNDWPPLTFGGGTKVEIKGGGGSGGGGSGGGGSGGGGSDVQLVESGGGVVRPGESLTLSCAASGFTFSSYDMGWVRQAPGEGLEWVSGIRGRGGSTYYAESVKGRFTISRESSKNTLYLQMNSLRAEDTAVYYCAKENERHSFFEYWGLGTLVTVSS | Kd | = | 4.6
